# System: Calf thymus DNA
# assay: Displacement of ethidium bromide from calf thymus type 1 DNA after 4 hrs by microtiter assay
metric: IC50 (µg/mL)
Reply numerically in µg/mL, unit not repeated.

molecule: CCOc1ccc(-c2nc3cc(-c4nc5cc(N6CCN(C)CC6)ccc5[nH]4)ccc3[nH]2)cc1
IC50, µg/mL: 33
--
molecule: Cn1cc(NC(=O)c2cc(NC(=O)c3cc(NC=O)cn3C)cn2C)cc1C(=O)NCCC(=N)N [STALLIMYCIN]
IC50, µg/mL: 4.3
--
molecule: C/C=C\C1OC1(C)c1cc(=O)c2c(C)cc3c(c2o1)C(=O)c1c(O)c([C@H]2C[C@@](C)(N(C)C)[C@H](O)[C@H](C)O2)cc([C@@H]2C[C@H](N(C)C)[C@@H](O)[C@@H](C)O2)c1C3=O (some centres undefined) [RUBIFLAVIN]
IC50, µg/mL: 13

--- query ---
Data request, read-out IC50, for N=C(N)c1ccc(/N=N/Nc2ccc(C(=N)N)cc2)cc1 [DIMINAZENE]
59
